Molecular target: HCV NS3 protease genotype 3a (3A-1) (Hepatitis C virus genotype 3a, UniProt Q81258)
Assay: HCV NS3 protease time-resolved fluorescence (TRF) assay, genotype 3a
Type: biochemical
Conditions: Ki 3a
Description: The HCV NS3 protease inhibitory activity of the present compounds may be tested using assays known in the art. One such assay is HCV NS3 protease time-resolved fluorescence (TRF) assay as described below and in International Patent Application Publication No. WO2006/102087. […] Product fluorescence is detected using either a VICTOR V2 or FUSION fluorophotometer (Perkin Elmer Life and Analytical Sciences) with excitation at 340 nm and emission at 615 nm with a 400 μs delay. […]
pKi: −log10 of the molar value.
This section presents molecules with their documented pKi values.
quantity-kind: pKi

* C=C[C@@H]1C[C@]1(NC(=O)[C@@H]1C[C@@H]2CN1C(=O)[C@H](C(C)(C)C)NC(=O)O[C@@H]1C[C@H]1CCCCCc1c(nc3ccccc3c1OCCCN(CC(O)c1ccc(O)c(O)c1)C(C)C)O2)C(=O)NS(=O)(=O)C1(C)CC1 (stereo partly shown) [Example 188] | 9.07
* C=C[C@@H]1C[C@]1(NC(=O)[C@@H]1C[C@@H]2CN1C(=O)[C@H](C(C)(C)C)NC(=O)O[C@@H]1C[C@H]1CCCCCc1c(nc3ccccc3c1OCCCNCCN1CCCC1=O)O2)C(=O)NS(=O)(=O)C1(C)CC1 [Example 197] | 9.51
* C=C[C@@H]1C[C@]1(NC(=O)[C@@H]1C[C@@H]2CN1C(=O)[C@H](C1CCCC1)NC(=O)O[C@@H]1CCC[C@H]1CC/C=C/Cc1c(nc3ccccc3c1OCCCN1CCOCC1)O2)C(=O)NS(=O)(=O)C1CC1 [Example 87] | 8.49
* C=CC1C[C@]1(NC(=O)[C@@H]1C[C@@H]2CN1C(=O)[C@H](C1CCCC1)NC(=O)O[C@@H]1CCC[C@H]1CC/C=C/Cc1c(nc3ccccc3c1OCCN1CCCC1)O2)C(=O)NS(=O)(=O)C1CC1 (stereo partly shown) [Example 80] | 8.62

====

Target: HCV NS3 protease genotype 3a (3A-1) (Hepatitis C virus genotype 3a)
Experiment: HCV NS3 protease time-resolved fluorescence (TRF) assay, genotype 3a
Type: biochemical
Details: Ki 3a
pKi: −log10 of the molar value.
quantity-kind: pKi

* C=C[C@@H]1C[C@]1(NC(=O)[C@@H]1C[C@@H]2CN1C(=O)[C@H](C1CCCC1)NC(=O)O[C@@H]1CCC[C@H]1CC/C=C/Cc1c(nc3ccccc3c1OCCC(C)(C)O)O2)C(=O)NS(=O)(=O)C1(C)CC1 [Example 49] | 8.82
* C=C[C@@H]1C[C@]1(NC(=O)[C@@H]1C[C@@H]2CN1C(=O)[C@H](C(C)(C)C)NC(=O)O[C@@H]1C[C@H]1CCCCCc1c(nc3ccccc3c1OC1CN(CC3CC3)C1)O2)C(=O)NS(=O)(=O)C1(C)CC1 [Example 223] | 8.92
* C=C[C@@H]1C[C@]1(NC(=O)[C@@H]1C[C@@H]2CN1C(=O)[C@H](C(C)(C)C)NC(=O)O[C@@H]1C[C@H]1CCCCCc1c(nc3ccccc3c1OC[C@H]1CCN(C(=O)OC(C)(C)C)C1)O2)C(=O)NS(=O)(=O)C1(C)CC1 [Example 137] | 8.92
* C=C[C@@H]1C[C@]1(NC(=O)[C@@H]1C[C@@H]2CN1C(=O)[C@H](C(C)(C)C)NC(=O)O[C@@H]1C[C@H]1CCCCCc1c(nc3ccccc3c1OCCCN1CCC[C@@H]1C(N)=O)O2)C(=O)NS(=O)(=O)C1(C)CC1 [Example 208] | 9.00
